For each record, write down the corresponding logP.
Give the figure only, with no unit attached.

// recorded logP for c1cc2c3c(c1)ccc1ccc4cccc-2c4c13 : 6.63

Looking up c1ccc2cc3c(ccc4c5ccccc5ccc34)cc2c1 , I found its logP recorded as 7.11

GET /value?item= c1ccc2c(c1)ccc1c3ccc4ccccc4c3[nH]c21 &field=logP returns 5.89

Lab note: measured logP of c1ccc2c(c1)ccc1cccnc12 was 3.25

What the record says about c1ccc2c(c1)ccc1c2ccc2c3ccccc3ccc21 : logP is 7.11

Quick note, logP for c1ccc2occc2c1 landed at 2.53

logP recorded for this compound, c1cnc2c(c1)ccc1cccnc12 , is 1.93

Looking up c1ccc(-c2cccc(-c3ccccn3)n2)nc1 , I see its logP listed as 1.96

Query c1ccc2c(c1)ccc1ncccc12 yields logP of 3.25

logP in this record for c1cc2ccc3cc4cccc5ccc6cc(c1)c2c3c6c54 : 7.04

Lab note: C1=Cc2ccc3c4c(ccc1c24)C=C3 gave logP of 5.07

The measured logP associated with c1cc2ccc3ccc4ccc5cccc6c(c1)c2c3c4c56 reads 7.04

The measured logP associated with c1ccc2c(c1)ccc1c2ccc2ccc3ccccc3c21 reads 7.11

====

With a cut-off of 3, any logP strictly below it is called y; any logP meeting it or above is called n.

(Q) Please let me know if c1ccc2c(c1)c1ccccc1c1c3ccccc3c3ccccc3c21 shows logP below 3.
(A) n

(Q) In plain terms, does c1cnccn1 come in under 3 for logP?
(A) y

(Q) I'd appreciate it if you could check whether c1ccc2cc3cc4cc5ccccc5cc4cc3cc2c1 has logP smaller than 3.
(A) n

(Q) Does the reported logP of c1cc(-c2ccncc2)ccn1 stay below 3?
(A) y

(Q) Here's an entry: c1ccc(-c2c3ccccc3c(-c3ccccc3)c3ccccc23)cc1 . Is its logP below 3?
(A) n

(Q) Say whether its logP is strictly beneath 3. Entry: c1ccc2cc3c(cc2c1)oc1ccccc13
(A) n

====

Outcome: Fulfilled for logP of at least 6; Not fulfilled for anything lower.

(Q) Textbook exercise: given the entry c1cnc2c(c1)ccc1ncccc12 , state whether its logP is greater than or equal to 6.
(A) Not fulfilled

(Q) Tell me whether logP is at least 6 here: c1ccc2c(c1)c1cccc3ccc4cccc2c4c31
(A) Fulfilled

(Q) In plain terms: is recorded logP at least 6 for c1ccc2cc3c4ccccc4c4ccccc4c3cc2c1 ?
(A) Fulfilled

(Q) Check this molecule for logP at or above 6: c1ccc2c(c1)CCO2
(A) Not fulfilled

(Q) Evaluate c1ccc2c(c1)cc1ccc3cccc4c5ccccc5c2c1c34 : logP at minimum 6?
(A) Fulfilled

(Q) Determine whether measured logP meets or exceeds 6 for c1ccc(-c2cccc(-c3ccccc3)n2)cc1
(A) Not fulfilled

====

The label depends only on logP: 1 if it is at least 4, 0 if it is smaller.

(Q) Please tell me: is the compound c1ccc2c(c1)Sc1ccccc1S2 at or over 4 in terms of logP?
(A) 1

(Q) Has c1ccc(-c2ccccn2)nc1 a recorded logP greater than or equal to 4?
(A) 0

(Q) Reported logP reaches at least 4 for c1csc(-c2cccs2)c1 ?
(A) 0

(Q) Record c1ccc2c(c1)COC2 ; criterion: logP no lower than 4. Met?
(A) 0

(Q) I'd appreciate it if you could say whether c1ccc2cc3c(cc2c1)sc1ccccc13 has logP at least equal to 4.
(A) 1

(Q) Check if logP >= 4 (inclusive). Item: c1ccc2c(c1)Oc1ccccc1O2
(A) 1

(Q) Quick check, logP >= 4? c1ccc2sccc2c1
(A) 0

(Q) Reported logP at or above 4? c1ccc2c(c1)Cc1ccccc1O2
(A) 1
